Test system: A549-mRuby cells
protocol_notes: Drug screening: effect on cell growth (cell number day 4 / day 0)
conditions_used: 10 μM drug, repeat #1
Where a name gives a salt, the structure may show the parent alone.
Growth_1: number of cells at day 4 divided by number of cells at day 0 of 4 or higher: Yes. Under 4: No.

compound	group
CS(=O)(=O)CCNCc1ccc(-c2ccc3ncnc(Nc4ccc(OCc5cccc(F)c5)c(Cl)c4)c3c2)o1 [Lapatinib]	No
CC1(C)O[C@@H]2C[C@H]3[C@@H]4C[C@H](F)C5=CC(=O)C=C[C@]5(C)[C@@]4(F)[C@@H](O)C[C@]3(C)[C@]2(C(=O)CO)O1 [Fluocinolone Acetonide]	No
CN(C)CCC=C1c2ccccc2COc2ccccc21 [Doxepin HCl]	Yes
CS(=O)(=O)CCNCc1ccc(-c2ccc3ncnc(Nc4ccc(OCc5cccc(F)c5)c(Cl)c4)c3c2)o1.Cc1ccc(S(=O)(=O)O)cc1.Cc1ccc(S(=O)(=O)O)cc1 [Lapatinib (GW-572016) Ditosylate]	Yes
CNCCCN1c2ccccc2CCc2ccccc21 [Desipramine Hydrochloride]	Yes
Cc1nc2c([nH]1)CCN(C(=O)c1ccc(NC(=O)c3ccccc3-c3ccccc3)cc1)c1ccccc1-2.O [Conivaptan HCl]	Yes
